Notes on Ki obtained with UniProt:P07477.
attribute-measured: Ki (µM)

chemical-smiles	Ki [µM]
CN1CCC(CCNC(=O)N2CCN(C(=O)O[C@H]3CCC[C@@H](OC(=O)N4CCN(C(=O)NCc5ccc(NC(=N)N)cc5)CC4)CCC3)CC2)CC1	110
N=C(N)Nc1ccc(CNC(=O)N2CCN(C(=O)O[C@H]3CCC[C@@H](OC(=O)N4CCN(C(=O)NCCc5ccncc5)CC4)CCC3)CC2)cc1	131

[I] N=C(N)Nc1ccc(CNC(=O)N2CCN(C(=O)OCC34CC5CC(C3)CC(COC(=O)N3CCN(C(=O)NCc6ccc(NC(=N)N)cc6)CC3)(C5)C4)CC2)cc1
[II] N=C(N)Nc1ccc(CC(=O)N2CCN(C(=O)O[C@H]3CCC[C@@H](OC(=O)N4CCN(C(=O)Cc5ccc(NC(=N)N)cc5)CC4)CCC3)CC2)cc1
[III] N=C(N)Nc1ccc(CNC(=O)N2CCN(C(=O)O[C@H]3CCC[C@@H](OC(=O)N4CCN(C(=O)CCCC5CCNCC5)CC4)CCC3)CC2)cc1
[IV] N=C(N)Nc1ccc(CNC(=O)N2CCN(C(=O)O[C@H]3CCC[C@@H](OC(=O)N4CCN(C(=O)CCCCCn5ccnc5)CC4)CCC3)CC2)cc1
Exercise: Returns the items ordered by Ki, from maximum to minimum. Provide the labels, sequenced as the question asks.
Key: III, IV, II, I
(III: 262 µM, IV: 171 µM, II: 82 µM, I: 17 µM)

###

Notes on Ki obtained with UniProtKB P00734.

chemical-smiles	Ki
NCC12CCC(CNC(=O)N3CCN(C(=O)O[C@H]4CCC[C@@H](OC(=O)N5CCN(C(=O)NCC67CCC(CN)(CC6)CC7)CC5)CCC4)CC3)(CC1)CC2	> 1 mM
N=C(N)Nc1ccc(CNC(=O)N2CCN(C(=O)O[C@H]3CCC[C@@H](OC(=O)N4CCN(C(=O)NC[C@H]5CC[C@H](N)CC5)CC4)CCC3)CC2)cc1	> 1 mM

According to the records, this compound N=C(N)Nc1ccc(CNC(=O)N2CCN(C(=O)O[C@H]3CCC[C@@H](OC(=O)N4CCN(C(=O)CCCn5ccnc5)CC4)CCC3)CC2)cc1 displays Ki of > 1 mM

###

- system-tested: Serine protease 1 (Homo sapiens, UniProt P07477)
- Sequence (P07477 whole entry): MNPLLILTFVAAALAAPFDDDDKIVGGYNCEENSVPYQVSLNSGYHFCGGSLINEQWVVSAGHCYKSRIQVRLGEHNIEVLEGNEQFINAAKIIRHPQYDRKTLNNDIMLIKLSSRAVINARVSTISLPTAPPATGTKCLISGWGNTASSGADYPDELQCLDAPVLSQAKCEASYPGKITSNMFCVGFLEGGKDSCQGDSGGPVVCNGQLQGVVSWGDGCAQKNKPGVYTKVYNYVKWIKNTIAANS
attribute-measured: Ki

chemical-smiles	system-tested	attribute-measured	result
CC(=N)N1CCC(CCNC(=O)N2CCN(C(=O)O[C@H]3CCC[C@@H](OC(=O)N4CCN(C(=O)NCCC5CCN(C(C)=N)CC5)CC4)CCC3)CC2)CC1	Serine protease 1 (Homo sapiens, UniProt P07477)	Ki	> 1000 µM

According to the records, this compound N=C(N)Nc1ccc(CNC(=O)N2CCN(C(=O)O[C@H]3CCC[C@@H](OC(=O)N4CCN(C(=O)CCSc5ccncc5)CC4)CCC3)CC2)cc1 displays Ki of 156 µM

According to the records, this compound CNCc1ccc(CNC(=O)N2CCN(C(=O)O[C@H]3CCC[C@@H](OC(=O)N4CCN(C(=O)NCc5ccc(CNC)cc5)CC4)CCC3)CC2)cc1 displays Ki of > 1000 µM

According to the records, this compound O=C(CCCC1CCNCC1)N1CCN(C(=O)O[C@H]2CCC[C@@H](OC(=O)N3CCN(C(=O)CCCC4CCNCC4)CC3)CCC2)CC1 displays Ki of > 1000 µM

According to the records, this compound NCCCCNC(=O)N1CCN(C(=O)O[C@H]2CCC[C@@H](OC(=O)N3CCN(C(=O)NCCCCN)CC3)CCC2)CC1 displays Ki of > 1000 µM

According to the records, this compound NCCCCCCNC(=O)N1CCN(C(=O)O[C@H]2CCC[C@@H](OC(=O)N3CCN(C(=O)NCCCCCCN)CC3)CCC2)CC1 displays Ki of > 1000 µM
